Exercise: for every item that follows, state its recorded IC50.
- study-system: Amine oxidase [flavin-containing] A (Homo sapiens, UniProt P21397)
- Sequence (P21397 whole entry): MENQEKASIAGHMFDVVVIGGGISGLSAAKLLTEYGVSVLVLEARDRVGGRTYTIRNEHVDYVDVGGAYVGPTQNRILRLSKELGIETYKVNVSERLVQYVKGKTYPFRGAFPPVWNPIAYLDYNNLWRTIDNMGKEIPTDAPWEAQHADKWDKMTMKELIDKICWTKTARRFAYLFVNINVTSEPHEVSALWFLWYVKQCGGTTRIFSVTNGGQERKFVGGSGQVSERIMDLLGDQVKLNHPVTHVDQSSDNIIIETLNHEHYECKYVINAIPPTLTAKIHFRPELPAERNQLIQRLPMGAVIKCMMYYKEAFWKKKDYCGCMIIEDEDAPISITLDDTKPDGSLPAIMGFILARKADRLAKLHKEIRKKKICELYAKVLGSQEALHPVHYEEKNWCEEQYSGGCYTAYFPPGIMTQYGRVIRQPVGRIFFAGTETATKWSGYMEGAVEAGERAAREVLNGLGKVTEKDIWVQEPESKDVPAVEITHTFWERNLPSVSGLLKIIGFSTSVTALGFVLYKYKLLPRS
- method-notes: Inhibition of recombinant human MAO-A assessed as oxidation of kynuramine to 4-hydroxyquinoline after 20 mins by spectrofluorometric analysis
- test-conditions: read-out: IC50
Answers are plain numbers, in µM.

Solved cases (5 shown):
CCOC(=O)c1csc(N/N=C(\C)c2ccncc2)n1; 6.63
C/C(=N\Nc1nc(-c2ccccc2)cs1)c1ccccn1; 16.6
C/C(=N\Nc1nc(C)cs1)c1cccnc1; 6.91
C/C(=N\Nc1nc(-c2ccccc2)cs1)c1cccnc1; 21.3
C/C(=N/Nc1nc(-c2ccccc2)cs1)c1ccncc1; 2.67

IC50 for CCOC(=O)c1csc(N/N=C(\C)c2cccnc2)n1 ?
6.57

Source: ChEMBL document CHEMBL2407071
